Target or system Retinoic acid receptor RXR-alpha (Homo sapiens); recorded quantity EC50.
// return numeric value only (unit: nM, not printed)

Worked cases, EC50 given:
smiles.code | EC50, nM
O=C(O)CCOc1nc(Cl)cc(N2CCCc3ccccc32)n1 | 110
CN(c1cccc(Cl)c1)c1cc(Cl)nc(OCCC(=O)O)n1 | 560

Request: # EC50 lookup, item `Cc1cccc(N(C)c2cc(Cl)nc(OCCC(=O)O)n2)c1`
Result: 400

---

test.target: Retinoic acid receptor RXR-gamma (Homo sapiens)
Sequence (P48443 whole entry): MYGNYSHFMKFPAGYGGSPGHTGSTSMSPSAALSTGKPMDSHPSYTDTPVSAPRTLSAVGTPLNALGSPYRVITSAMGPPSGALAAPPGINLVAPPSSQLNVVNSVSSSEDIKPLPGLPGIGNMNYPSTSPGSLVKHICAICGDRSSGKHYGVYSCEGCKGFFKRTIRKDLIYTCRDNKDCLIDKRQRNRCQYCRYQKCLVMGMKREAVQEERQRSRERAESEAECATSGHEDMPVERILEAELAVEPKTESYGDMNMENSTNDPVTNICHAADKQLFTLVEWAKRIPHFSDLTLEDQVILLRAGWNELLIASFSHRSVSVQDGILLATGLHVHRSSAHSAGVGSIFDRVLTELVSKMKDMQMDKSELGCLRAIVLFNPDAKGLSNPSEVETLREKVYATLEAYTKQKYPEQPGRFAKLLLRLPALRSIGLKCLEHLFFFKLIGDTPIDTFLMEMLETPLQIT
pEC50: −log10 of the molar value.
I would appreciate it if you labelled entries label 1 when pEC50 is 7 or higher, otherwise label 0.

molecule | test.target | category.label
CC1Cc2ccccc2N(c2cc(Cl)nc(OCCC(=O)O)n2)C1 (stereo not given) | Retinoic acid receptor RXR-gamma (Homo sapiens) | label 0

Request: Quick check: does `CC1(C)CCN(c2cc(Cl)nc(OCCC(=O)O)n2)c2ccccc21` have pEC50 greater than or equal to 7?
Result: label 1
